Reported switch fluorescence ratio values follow for various sequences
System: ATP;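 note: ATP exposure 15 min at 22 °C before imaging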
Assay: switch fluorescence ratio, 500 uM ATP over buffer (Cy3 cluster intensity, sum of 5 cycles each) (fold (ratio)); higher = stronger signal-on switching upon ATP binding; sequences stand for … in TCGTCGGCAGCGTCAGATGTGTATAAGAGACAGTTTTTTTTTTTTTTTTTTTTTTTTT…TC
Settings: aptamer strand: ATP DNA aptamer (quencher-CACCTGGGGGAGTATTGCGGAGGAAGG + anchor), 100 nM annealed; ATP concentration: 500 uM

[
  {
    "record_sequence": "CATACACCTT",
    "switch fluorescence ratio": 1.21
  },
  {
    "record_sequence": "ATTAGAAAAG",
    "switch fluorescence ratio": 0.991
  },
  {
    "record_sequence": "GACGAAGCGG",
    "switch fluorescence ratio": 2.41
  },
  {
    "record_sequence": "GAATTATTGG",
    "switch fluorescence ratio": 0.975
  },
  {
    "record_sequence": "TAGTGACTAG",
    "switch fluorescence ratio": 1.05
  },
  {
    "record_sequence": "TGTAATTACA",
    "switch fluorescence ratio": 1
  },
  {
    "record_sequence": "TAAGAGAATT",
    "switch fluorescence ratio": 1.02
  },
  {
    "record_sequence": "ATGTTGTTTG",
    "switch fluorescence ratio": 0.979
  },
  {
    "record_sequence": "TCGGGCAACG",
    "switch fluorescence ratio": 1
  },
  {
    "record_sequence": "TGAGTTCAAC",
    "switch fluorescence ratio": 1.04
  },
  {
    "record_sequence": "AGCTGGATGC",
    "switch fluorescence ratio": 1.04
  },
  {
    "record_sequence": "AAGCCAAGGT",
    "switch fluorescence ratio": 1.03
  },
  {
    "record_sequence": "GTAAAAGCGG",
    "switch fluorescence ratio": 0.979
  },
  {
    "record_sequence": "TAAAATACGT",
    "switch fluorescence ratio": 0.995
  },
  {
    "record_sequence": "CTGAGAGTAC",
    "switch fluorescence ratio": 1.05
  },
  {
    "record_sequence": "TTAAGCATGT",
    "switch fluorescence ratio": 1.01
  },
  {
    "record_sequence": "TTGACGCGTG",
    "switch fluorescence ratio": 0.982
  },
  {
    "record_sequence": "GGATGGGTGC",
    "switch fluorescence ratio": 0.994
  },
  {
    "record_sequence": "ATAACCCTTT",
    "switch fluorescence ratio": 1.12
  },
  {
    "record_sequence": "ATTGGAGGCT",
    "switch fluorescence ratio": 0.971
  },
  {
    "record_sequence": "CGCGGGAGAG",
    "switch fluorescence ratio": 1.02
  },
  {
    "record_sequence": "CAGGGAATAG",
    "switch fluorescence ratio": 1.07
  },
  {
    "record_sequence": "ATGTAAAAGT",
    "switch fluorescence ratio": 0.986
  },
  {
    "record_sequence": "TTTTGGATAA",
    "switch fluorescence ratio": 1.02
  },
  {
    "record_sequence": "ATTGTAATTG",
    "switch fluorescence ratio": 0.993
  },
  {
    "record_sequence": "ATGTCATTGG",
    "switch fluorescence ratio": 1.01
  },
  {
    "record_sequence": "TGGGAGGTTA",
    "switch fluorescence ratio": 0.965
  },
  {
    "record_sequence": "TTAAGGCAAA",
    "switch fluorescence ratio": 1.03
  },
  {
    "record_sequence": "GTCGAAACAT",
    "switch fluorescence ratio": 1.04
  },
  {
    "record_sequence": "GGGGGTTTAC",
    "switch fluorescence ratio": 1.01
  },
  {
    "record_sequence": "CGGTAGGGGC",
    "switch fluorescence ratio": 0.968
  },
  {
    "record_sequence": "GTGGGGGG",
    "switch fluorescence ratio": 0.999
  },
  {
    "record_sequence": "TGTCCTAAAA",
    "switch fluorescence ratio": 1.05
  },
  {
    "record_sequence": "ATTACCCGGA",
    "switch fluorescence ratio": 1
  },
  {
    "record_sequence": "TTACGAGTGG",
    "switch fluorescence ratio": 1.02
  },
  {
    "record_sequence": "CCGGGTTTCG",
    "switch fluorescence ratio": 0.996
  },
  {
    "record_sequence": "TAGGTCGTTT",
    "switch fluorescence ratio": 0.982
  },
  {
    "record_sequence": "CAGATTGATG",
    "switch fluorescence ratio": 0.983
  },
  {
    "record_sequence": "AATTTTTTTT",
    "switch fluorescence ratio": 1.01
  },
  {
    "record_sequence": "CTAAATATTA",
    "switch fluorescence ratio": 1.03
  },
  {
    "record_sequence": "GGTTTAGGGA",
    "switch fluorescence ratio": 0.996
  },
  {
    "record_sequence": "AATAAAGAAT",
    "switch fluorescence ratio": 0.973
  },
  {
    "record_sequence": "GGATTTATTG",
    "switch fluorescence ratio": 1.02
  }
]

###

System: ATP;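 note: ATP exposure 15 min at 22 °C before imaging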
Experiment: switch fluorescence ratio, 500 uM ATP over buffer (Cy3 cluster intensity, sum of 5 cycles each) (fold (ratio)); higher = stronger signal-on switching upon ATP binding; sequences stand for … in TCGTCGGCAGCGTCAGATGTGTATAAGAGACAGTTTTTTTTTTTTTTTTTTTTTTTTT…TC
Conditions: aptamer strand: ATP DNA aptamer (quencher-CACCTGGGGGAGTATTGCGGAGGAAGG + anchor), 100 nM annealed; ATP concentration: 500 uM

[
  {
    "record_sequence": "TTTGATCTCG",
    "target_under_test": "ATP",
    "switch fluorescence ratio": 1.01
  },
  {
    "record_sequence": "TAGTGTTGTG",
    "target_under_test": "ATP",
    "switch fluorescence ratio": 0.971
  },
  {
    "record_sequence": "GGGGATGTGC",
    "target_under_test": "ATP",
    "switch fluorescence ratio": 1.01
  },
  {
    "record_sequence": "TACATAGTTC",
    "target_under_test": "ATP",
    "switch fluorescence ratio": 1.03
  },
  {
    "record_sequence": "CATGGGGTTG",
    "target_under_test": "ATP",
    "switch fluorescence ratio": 0.978
  },
  {
    "record_sequence": "GAAAGATTAT",
    "target_under_test": "ATP",
    "switch fluorescence ratio": 1.03
  },
  {
    "record_sequence": "CCGTATGTGC",
    "target_under_test": "ATP",
    "switch fluorescence ratio": 1.75
  },
  {
    "record_sequence": "GAAGAAAACT",
    "target_under_test": "ATP",
    "switch fluorescence ratio": 1.08
  },
  {
    "record_sequence": "TTTAATATGA",
    "target_under_test": "ATP",
    "switch fluorescence ratio": 0.997
  },
  {
    "record_sequence": "TGATGCGGGT",
    "target_under_test": "ATP",
    "switch fluorescence ratio": 0.987
  },
  {
    "record_sequence": "ACGCGGGGGT",
    "target_under_test": "ATP",
    "switch fluorescence ratio": 1.07
  },
  {
    "record_sequence": "AAGGGATTGC",
    "target_under_test": "ATP",
    "switch fluorescence ratio": 0.995
  },
  {
    "record_sequence": "CGGAACTGAA",
    "target_under_test": "ATP",
    "switch fluorescence ratio": 1.02
  },
  {
    "record_sequence": "TTTTTATGAC",
    "target_under_test": "ATP",
    "switch fluorescence ratio": 1.01
  },
  {
    "record_sequence": "CAGCTCGGTC",
    "target_under_test": "ATP",
    "switch fluorescence ratio": 0.969
  },
  {
    "record_sequence": "TTTGTTAGCA",
    "target_under_test": "ATP",
    "switch fluorescence ratio": 0.987
  },
  {
    "record_sequence": "CGTGTCAGGG",
    "target_under_test": "ATP",
    "switch fluorescence ratio": 1
  },
  {
    "record_sequence": "AACAATTATT",
    "target_under_test": "ATP",
    "switch fluorescence ratio": 1.04
  },
  {
    "record_sequence": "GACGTATAG",
    "target_under_test": "ATP",
    "switch fluorescence ratio": 0.994
  },
  {
    "record_sequence": "ACAGGCTGCG",
    "target_under_test": "ATP",
    "switch fluorescence ratio": 0.995
  },
  {
    "record_sequence": "ACATGAAGAT",
    "target_under_test": "ATP",
    "switch fluorescence ratio": 1.03
  },
  {
    "record_sequence": "TTCGCGTTAG",
    "target_under_test": "ATP",
    "switch fluorescence ratio": 1.23
  },
  {
    "record_sequence": "GTGTATTTTG",
    "target_under_test": "ATP",
    "switch fluorescence ratio": 0.996
  },
  {
    "record_sequence": "ATTTAATTTT",
    "target_under_test": "ATP",
    "switch fluorescence ratio": 1.02
  },
  {
    "record_sequence": "TCGGGGGGA",
    "target_under_test": "ATP",
    "switch fluorescence ratio": 1.03
  },
  {
    "record_sequence": "TTTTCCTGCT",
    "target_under_test": "ATP",
    "switch fluorescence ratio": 1.07
  },
  {
    "record_sequence": "CTATTGTGGA",
    "target_under_test": "ATP",
    "switch fluorescence ratio": 0.999
  },
  {
    "record_sequence": "GAGTTTGGG",
    "target_under_test": "ATP",
    "switch fluorescence ratio": 1
  },
  {
    "record_sequence": "CGGTCGCTTG",
    "target_under_test": "ATP",
    "switch fluorescence ratio": 1.02
  },
  {
    "record_sequence": "GGACGTTGGT",
    "target_under_test": "ATP",
    "switch fluorescence ratio": 1.02
  },
  {
    "record_sequence": "TTAGCTCATT",
    "target_under_test": "ATP",
    "switch fluorescence ratio": 1
  },
  {
    "record_sequence": "GATTGCGGTC",
    "target_under_test": "ATP",
    "switch fluorescence ratio": 1.03
  },
  {
    "record_sequence": "GAGGCATGGA",
    "target_under_test": "ATP",
    "switch fluorescence ratio": 0.986
  },
  {
    "record_sequence": "ACTACCTACA",
    "target_under_test": "ATP",
    "switch fluorescence ratio": 1.36
  },
  {
    "record_sequence": "AAGTATGGTA",
    "target_under_test": "ATP",
    "switch fluorescence ratio": 0.965
  },
  {
    "record_sequence": "GGTACGAGGT",
    "target_under_test": "ATP",
    "switch fluorescence ratio": 0.972
  },
  {
    "record_sequence": "TATTTCGAAC",
    "target_under_test": "ATP",
    "switch fluorescence ratio": 1.02
  },
  {
    "record_sequence": "AAGGGACGTG",
    "target_under_test": "ATP",
    "switch fluorescence ratio": 0.984
  },
  {
    "record_sequence": "CATAGATGTC",
    "target_under_test": "ATP",
    "switch fluorescence ratio": 0.989
  },
  {
    "record_sequence": "ATTGTGATTG",
    "target_under_test": "ATP",
    "switch fluorescence ratio": 0.997
  },
  {
    "record_sequence": "ATTGGAGGAT",
    "target_under_test": "ATP",
    "switch fluorescence ratio": 0.962
  },
  {
    "record_sequence": "GTGTTATGAT",
    "target_under_test": "ATP",
    "switch fluorescence ratio": 0.957
  },
  {
    "record_sequence": "TTATGTGGGC",
    "target_under_test": "ATP",
    "switch fluorescence ratio": 0.97
  }
]

Values were extracted from the supplement of paper PMC10126150.
